B1: glmS ribozyme (parent)
chain: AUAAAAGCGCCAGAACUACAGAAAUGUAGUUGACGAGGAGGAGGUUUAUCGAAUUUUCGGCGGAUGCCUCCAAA

# Variants of: B1
# measurementProtocol: self-cleavage kobs at 10000 uM GlcN6P; higher = faster cleavage; RNA array
# cond: with glucosamine-6-phosphate
This sample holds only a part of the variants without activity.
valueType: self-cleavage kobs at 10000 uM GlcN6P (s⁻¹)
# output: bare number, implied unit s⁻¹

Given the variant C16G U30A U65G , what is its reported self-cleavage kobs at 10000 uM GlcN6P?
0.000101

Now this one: A48C U54C
0.000316

Another variant to look at: A12G U47A
0.000864

Repeat for the following variant: G40U A48G
3.18e-05

Next variant: A12C G41U
0.00129

What do we get for A64C C70U ?
5.16e-05

Also U56A U65G ?
0.00196

Try A15U U54C U65A next.
0.000335

Another variant to check: U56C C71A
3.76e-05

Field entry: G44C U54C
0.000179

Follow-up entry: G7A A33G C50A U69A C70U
9.88e-05

Same thing, different variant: A14C G37A
0.000388

Field entry: A15G U69G
7.05e-05

Same for A15U A39U
0.0038

Moving on to U31G A33C
2.4e-05

Also, U46G U54G please.
0.0102

What do you have for U46C G66A ?
0.00107

Then what about the variant A14C U56A ?
0.00318

Then this variant: G13U A39G C71A
0.000285

Item: U45C C67A
0.00519

Query G26U G40U next
0.000883

Follow-up entry: A12U G66C
0.00177

C16G A52G , same question.
0.000262

Next entry: A39G U55C
0.0709

Param item: U45A U47G
0.00802

A14G C68G ?
0.000235

Then this variant: A12U A14G G41A A42G
0.000918
